assay: Atovaquone solubility in pharmaceutical excipients; type: physicochemical; details: Isopropyl Palmitate (neat excipient), oil or lipid, thermodynamic from solid, in Isopropyl Palmitate, 37° C.

>  <Compound>
O=C1C(O)=C([C@H]2CC[C@H](c3ccc(Cl)cc3)CC2)C(=O)c2ccccc21 [atovaquone]

>  <solubility at 48 h / µg/mL>
2460

$$$$

====

test: Atovaquone solubility in pharmaceutical excipients; format: physicochemical; settings: Capryol (neat excipient), oil or lipid, thermodynamic from solid, in Capryol, 37° C.

>  <Chemical smiles>
O=C1C(O)=C([C@H]2CC[C@H](c3ccc(Cl)cc3)CC2)C(=O)c2ccccc21

>  <solubility at 48 h (µg/mL)>
5540

$$$$

====

assay: Atovaquone solubility in pharmaceutical excipients; format: physicochemical; details: PEG 400 (neat excipient), organic solvent or mixture, thermodynamic from solid, in PEG 400, 37° C.
Property: solubility at 48 h (µg/mL)

>  <Chemical smiles>
O=C1C(O)=C([C@H]2CC[C@H](c3ccc(Cl)cc3)CC2)C(=O)c2ccccc21

>  <Property>
solubility at 48 h

>  <Display unit>
µg/mL

>  <Reading>
7220

$$$$

====

Assay: Atovaquone solubility in pharmaceutical excipients
Type: physicochemical
Conditions: PEG 200 (neat excipient), organic solvent or mixture, thermodynamic from solid, in PEG 200, 37° C.
Protocol: Excess atovaquone (100 mg/mL) (Molekula, Irvine, Calif.) was added to each of the following excipients: Benzyl Benzoate, Tween 20, Tween 80, PEG 200, PEG 400, Labrafac, Labrafil, Capryol, Capmul, Captex, Propylene Glycol and Isopropyl Palmitate. The mixtures were shaken at 100 RPM at 37° C. for 48 hours. Each individual sample was centrifuged at 3000 RPM for 10 minutes. The supernatant was then filtered through a 0.45 μm PTFE filter. […]

>  <Chemical smiles>
O=C1C(O)=C([C@H]2CC[C@H](c3ccc(Cl)cc3)CC2)C(=O)c2ccccc21

>  <solubility at 48 h>
4780 µg/mL

$$$$

====

test: Atovaquone solubility in pharmaceutical excipients; type: physicochemical; conditions: Propylene Glycol (neat excipient), organic solvent or mixture, thermodynamic from solid, in Proplylene Gycol, 37° C.

>  <Chemical smiles>
O=C1C(O)=C([C@H]2CC[C@H](c3ccc(Cl)cc3)CC2)C(=O)c2ccccc21

>  <Display unit>
µg/mL

>  <solubility at 48 h>
380

$$$$

====

assay: Atovaquone solubility in pharmaceutical excipients; type: physicochemical; details: Benzyl Benzoate (neat excipient), organic solvent or mixture, thermodynamic from solid, in Benzyl Benzoate, 37° C.
Property: solubility at 48 h

>  <Chemical smiles>
O=C1C(O)=C([C@H]2CC[C@H](c3ccc(Cl)cc3)CC2)C(=O)c2ccccc21

>  <Reading>
14.3 mg/mL

$$$$

====

test: Atovaquone solubility in pharmaceutical excipients; assay type: physicochemical; conditions: Labrafac (neat excipient), oil or lipid, thermodynamic from solid, in Labrafac, 37° C.

>  <Compound>
O=C1C(O)=C([C@H]2CC[C@H](c3ccc(Cl)cc3)CC2)C(=O)c2ccccc21 [atovaquone]

>  <solubility at 48 h>
4080 µg/mL

$$$$

====

assay: Atovaquone solubility in pharmaceutical excipients; format: physicochemical; details: Tween 80 (neat excipient), organic solvent or mixture, thermodynamic from solid, in Tween 80, 37° C.

>  <Chemical smiles>
O=C1C(O)=C([C@H]2CC[C@H](c3ccc(Cl)cc3)CC2)C(=O)c2ccccc21

>  <solubility at 48 h / mg/mL>
10.2

$$$$
